We begin with a simple list: items and their reported log10(Tmax).
- assay details: in vivo
- condition description: Swiss Webster, mouse, po, 0.3 mg/kg
result type: log10(Tmax) (log10 of the value in h)

molecule: CC(C)C(=O)N1CCC(NC(=O)Nc2ccc(C(F)(F)F)cc2)CC1
log10(Tmax): 0.60
--
molecule: CCC(C)C(=O)N1CCC(NC(=O)NC2CCCCCC2)CC1 (stereo unspecified)
log10(Tmax): -0.30
--
molecule: CCC(C)C(=O)N1CCC(NC(=O)Nc2ccc(C(F)(C(F)(F)F)C(F)(F)F)cc2)CC1 (stereo unspecified)
log10(Tmax): 0.40
--
molecule: O=C(Nc1ccc(C(F)(C(F)(F)F)C(F)(F)F)cc1)NC1CCN(C(=O)CC(F)(F)F)CC1
log10(Tmax): 0.90
--
molecule: O=C(Nc1ccc(C(F)(F)F)cc1)NC1CCN(S(=O)(=O)CC(F)(F)F)CC1
log10(Tmax): 0.90
--
molecule: CC[C@H](C)C(=O)N1CCC(NC(=O)Nc2ccc(OC(F)(F)F)cc2)CC1
log10(Tmax): 0.60
--
molecule: CC[C@H](C)C(=O)N1CCC(NC(=O)Nc2ccc(C(F)(F)F)cc2)CC1
log10(Tmax): 0.00
--
molecule: CCC(C)C(=O)N1CCC(NC(=O)Nc2ccc(OC(F)(F)F)cc2)CC1 (stereo unspecified)
log10(Tmax): 0.30
--
molecule: CS(=O)(=O)N1CCC(NC(=O)Nc2ccc(C(F)(F)F)cc2)CC1
log10(Tmax): 0.90
--
molecule: O=C(Nc1ccc(C(F)(F)F)cc1)NC1CCN(C(=O)CC(F)(F)F)CC1
log10(Tmax): 0.90
--
molecule: CCC(C)C(=O)N1CCC(NC(=O)Nc2ccc(C(F)(F)F)cc2)CC1 (stereo unspecified)
log10(Tmax): -0.30
--
molecule: CCCCS(=O)(=O)N1CCC(NC(=O)Nc2ccc(C(F)(F)F)cc2)CC1
log10(Tmax): 0.00
--
molecule: CCC(C)C(=O)N1CCC(NC(=O)Nc2ccc(C(C)C)cc2)CC1 (stereo unspecified)
log10(Tmax): -0.30
--
molecule: CC(C)C(=O)N1CCC(NC(=O)Nc2ccc(OC(F)(F)F)cc2)CC1
log10(Tmax): 0.70
--
molecule: O=C(Nc1ccc(C(F)(F)F)cc1)NC1CCN(C(=O)C2CC2)CC1
log10(Tmax): 0.78
--
molecule: CCCCS(=O)(=O)N1CCC(NC(=O)Nc2ccc(OC(F)(F)F)cc2)CC1
log10(Tmax): 0.08

###

- assay details: Cmax in Swiss Webster mouse at 0.3 mg/kg, po administered as cassette dosing
- Assay type: ADME, organism-based
- Set-up: dose 0.3 mg/kg, route oral
- condition description: Swiss Webster, in vivo
result type: Cmax (nM)

compound: CC(=O)N1CCC(NC(=O)NC23CC4CC(CC(C4)C2)C3)CC1
result units: nM
experimental result: 30
//
compound: CC[C@H](C)C(=O)N1CCC(NC(=O)Nc2ccc(OC(F)(F)F)cc2)CC1
result units: nM
experimental result: 195
//
compound: O=C(Nc1ccc(C(F)(C(F)(F)F)C(F)(F)F)cc1)NC1CCN(C(=O)CC(F)(F)F)CC1
result units: nM
experimental result: 365
//
compound: CC(C)C(=O)N1CCC(NC(=O)Nc2ccc(C(F)(F)F)cc2)CC1
result units: nM
experimental result: 1160
//
compound: CCC(C)C(=O)N1CCC(NC(=O)Nc2ccc(C(C)C)cc2)CC1 (stereo not drawn)
result units: nM
experimental result: 90
//
compound: CCC(C)C(=O)N1CCC(NC(=O)NC2CCCCCC2)CC1 (stereo not drawn)
result units: nM
experimental result: 3
//
compound: CC(C)C(=O)N1CCC(NC(=O)Nc2ccc(OC(F)(F)F)cc2)CC1
result units: nM
experimental result: 900
//
compound: CC[C@H](C)C(=O)N1CCC(NC(=O)Nc2ccc(C(F)(F)F)cc2)CC1
result units: nM
experimental result: 435
//
compound: CS(=O)(=O)N1CCC(NC(=O)Nc2ccc(C(F)(F)F)cc2)CC1
result units: nM
experimental result: 130
//
compound: CCC(C)C(=O)N1CCC(NC(=O)Nc2ccc(OC(F)(F)F)cc2)CC1 (stereo not drawn)
result units: nM
experimental result: 235
//
compound: O=C(Nc1ccc(C(F)(F)F)cc1)NC1CCN(S(=O)(=O)CC(F)(F)F)CC1
result units: nM
experimental result: 100
//
compound: CCC(C)C(=O)N1CCC(NC(=O)Nc2ccc(C(F)(F)F)cc2)CC1 (stereo not drawn)
result units: nM
experimental result: 320
//
compound: CCC(C)C(=O)N1CCC(NC(=O)Nc2ccc(C(F)(C(F)(F)F)C(F)(F)F)cc2)CC1 (stereo not drawn)
result units: nM
experimental result: 135
//
compound: CCCCS(=O)(=O)N1CCC(NC(=O)Nc2ccc(OC(F)(F)F)cc2)CC1
result units: nM
experimental result: 65
//
compound: O=C(Nc1ccc(C(F)(F)F)cc1)NC1CCN(C(=O)CC(F)(F)F)CC1
result units: nM
experimental result: 330
//
compound: CCCCS(=O)(=O)N1CCC(NC(=O)Nc2ccc(C(F)(F)F)cc2)CC1
result units: nM
experimental result: 30
//
compound: CCC(C)C(=O)N1CCC(NC(=O)N[C@H]2CC[C@H](CC)CC2)CC1 (stereo partly drawn)
result units: nM
experimental result: 5
//
compound: O=C(Nc1ccc(C(F)(F)F)cc1)NC1CCN(C(=O)C2CC2)CC1
result units: nM
experimental result: 960
